The reported measurements were obtained from PubChem BioAssay AID710.

experiment: growth inhibitors of wild-type E. coli, primary screen, strain BW25113, expanded library, OD600 (AID 710); details: OD600 absorbance, at 100 µM, stronger effect = higher value;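 note: growth measured after 20 h incubation at 37 °C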
The whole screen tested about 98,000 compounds, of which about 150 (0.15%) were called active. The sample as a whole holds a higher share of actives than the screen did.
Value type: growth inhibition

- Molecule: "Cc1ccc(Sc2cc(N3CCOCC3)nc(-c3ccccc3)n2)cc1"
  growth inhibition: "-9% (inactive)"
- Molecule: "C=CCN(C(=O)Cn1ncc2c1-c1cc(C)ccc1OC2)c1ccccc1"
  growth inhibition: "5% (inactive)"
- Molecule: "CCn1c(/C=C/c2ccc([N+](=O)[O-])o2)nc2ccccc2c1=O"
  growth inhibition: "6% (inactive)"
- Molecule: "CN1C2CCC1/C(=C\\c1ccccc1Cl)C(=O)/C2=C\\c1ccccc1Cl"
  growth inhibition: "-3% (inactive)"
- Molecule: "CC(Sc1nnc(Cc2ccc([N+](=O)[O-])cc2)o1)C(N)=O (centres undefined)"
  growth inhibition: "2% (inactive)"
- Molecule: "Cc1ccc(-c2nnc(-n3nnc4ccccc43)c3ccccc23)cc1"
  growth inhibition: "-7% (inactive)"
- Molecule: "COc1cccc(NC(=O)c2nn(C34CC5CC(CC(C5)C3)C4)cc2[N+](=O)[O-])c1"
  growth inhibition: "-6% (inactive)"
- Molecule: "CCCCCOC(=O)c1ccc(N2C(=O)C3C4C=CC(C4)C3C2=O)cc1 (centres undefined)"
  growth inhibition: "-5% (inactive)"

Here are 6 molecules. What values of growth inhibition were reported for them?
1. CC12c3ccccc3C(c3ccccc31)C1C(=O)N(Cc3cccnc3)C(=O)C12 (centres undefined)
2. O=C(c1ccccc1)C(Cn1cncn1)C(Sc1ccccc1)c1ccccc1 (centres undefined)
3. Brc1ccc(OCCn2ccnc2)cc1
4. N#Cc1ccc(-c2ccc(Cl)cc2)nc1Oc1ccc(F)cc1
5. CN(C)C(=O)c1cc(Br)ccc1Cl
6. Cc1nnc(SCC(=O)NC2CCCC2)s1

Response given:
["-1% (inactive)", "-9% (inactive)", "55% (active)", "-7% (inactive)", "2% (inactive)", "-2% (inactive)"]

Provide growth inhibition values for the following items, in order.
1. CCOc1ccccc1C(=O)NCCCn1ccnc1
2. O=C(Nc1ccc2nc3n(c(=O)c2c1)CCCCC3)c1ccccc1Cl
3. O=C(CCN1C(=O)c2ccccc2C1=O)Nc1cccc(F)c1
4. Cc1ccc(S(=O)(=O)N(CC(=O)N/N=C/c2ccc(F)cc2)c2cccc3cccnc23)cc1
5. CCCCNC(=O)OC(C)CNC(=O)OC (centres undefined)
6. CC(C)(C)c1ccc(OC2=CS(=O)(=O)c3ccccc32)cc1
7. O=C(Nc1cccc(Cl)c1)Nc1nnc(-c2ccccc2)o1

Response given:
10% (inactive)
-6% (inactive)
0% (inactive)
-18% (inactive)
10% (inactive)
-3% (inactive)
2% (inactive)

Hello, I would appreciate it if you could give growth inhibition for each entry below.
1. O=C(/C=C/NNC(=O)c1cccc(Br)c1)c1ccccc1
2. CN(C)c1nc(N)nc(CSc2ccccn2)n1
3. CC1(C)C2CCC1(C)C(OC(=O)CCn1ccnc1)C2 (centres undefined)

Response given:
1: -3% (inactive); 2: -1% (inactive); 3: 6% (inactive)
